- System: Leishmania infantum (MHOM/MA/67/ITMAP-263) intracellular amastigotes in THP-1
- Protocol Summary: microbe, parasite or virus in culture
- Experimental Parameters: THP-1, read-out: L. infantum MHOM/MA/67/ITMAP263 intracellular amastigotes THP-1 cells IC50 (uM)
Result Type: IC50

-- ask Specify reported IC50 for the compound shown: O=S(=O)(NCc1ccccc1)c1cc2c(cc1Cl)NCN(Cc1ccccc1)S2(=O)=O [DNDI0003392144]
-- reply > 64 µM

-- ask Look up and report measured IC50 for this entry: Nc1cc(Cl)c(S(N)(=O)=O)cc1S(=O)(=O)N(Cc1ccccc1)Cc1ccccc1 [DNDI0003392145]
-- reply 31.2 µM

-- ask Return reported IC50. Input compound: COc1ccc(Cl)cc1S(=O)(=O)N(Cc1ccccc1)C1COC(=O)OC1 [DNDI0003392146]
-- reply > 64 µM

-- ask Write down IC50 measured for item CCCCOc1ccc(C(=O)N2CCOCC2)cc1S(=O)(=O)NCc1ccccc1 [DNDI0003407874]
-- reply > 64 µM

-- ask Identify the reported IC50 for the following entry. COCCOCN(Cc1ccccc1)S(=O)(=O)c1cc(OC)ccc1OC [DNDI0003425514]
-- reply > 64 µM

-- ask Please give the documented IC50 of COc1cc2c(cc1S(=O)(=O)N(Cc1ccccc1)Cc1ccccc1)S(=O)(=O)NCN2 [DNDI0003425513]
-- reply 48.3 µM

-- ask Kindly indicate its recorded IC50. Item: COc1ccc(C(=O)N2CCOCC2)cc1S(=O)(=O)N(Cc1ccc(C(F)(F)F)nc1)C(C)c1ccc(F)cc1 (centres unmarked) [DNDI0003407905]
-- reply 9.86 µM

-- ask State its IC50 for this compound: O=C(c1ccc(OCC2CCCO2)c(S(=O)(=O)NCc2ccccc2)c1)N1CCOCC1 (centres unmarked) [DNDI0003407877]
-- reply > 64 µM

----------
- Tested on: Leishmania infantum MHOM/MA(BE)/67/ITMAP263 intracellular amastigotes
- Protocol Summary: microbe, parasite or virus in culture
- Experimental Parameters: Macrophage, in Mus musculus, read-out: L. Inf. pIC50, from L. infantum intracellular amastigote IC50 (converted)
Result Type: IC50 (µM)
Please give a number only; it is taken to be in µM.

-- ask Give reported IC50 value for `CCN(Cc1ccccc1)S(=O)(=O)c1ccccc1OC(F)(F)F`
-- reply 8.51

-- ask Quote IC50 reported for `CS(=O)(=O)c1ccccc1S(=O)(=O)N(Cc1ccccc1)Cc1ccccc1` please.
-- reply 32.4

-- ask Give IC50 for the following compound: `COCCNC(=O)c1ccc(OC)c(S(=O)(=O)N(Cc2ccc(F)cc2)Cc2ccc(F)cc2)c1`
-- reply 1.02

-- ask Answer with the recorded IC50 for the compound listed here: CCC(Cc1ccccc1)Sc1nc(C)cc(C)c1C#N (stereo not shown)
-- reply 2.63

-- ask For the compound `COc1ccc(C(=O)N2CCCC2)cc1S(=O)(=O)N(Cc1ccccc1)Cc1ccccc1` , give its measured IC50 value.
-- reply 0.49

-- ask In one line, give reported IC50 of the entry `COc1ccc(C(=O)N2CCOCC2)cc1S(=O)(=O)N(Cc1ccccc1)Cc1ccccc1` .
-- reply 0.457

-- ask Indicate the recorded IC50 value for this compound: O=S1(=O)c2cc(F)ccc2OCC(c2ccc(F)cc2)N1Cc1ccccc1 (stereo not shown)
-- reply 10.2

-- ask In one line, give reported IC50 of the entry O=S(=O)(c1cc(F)ccc1F)N(Cc1ccccc1)C(CO)c1ccc(F)cc1 (stereo not shown) .
-- reply 35.5

-- ask Read the entry `COc1ccc(CN(Cc2ccc(F)cc2)S(=O)(=O)c2cc(F)ccc2F)cc1` and write its reported IC50.
-- reply 57.5

-- ask Look up and state reported IC50 for `COc1ccc(OC)c(S(=O)(=O)N(Cc2ccc(F)cc2)Cc2ccnn2C)c1`
-- reply 5.13

-- ask Identify the reported IC50 for the following entry. `CCN(Cc1ccccc1)S(=O)(=O)c1ccccc1OC`
-- reply 11

-- ask Complete the entry with IC50 for O=S1(=O)c2ccccc2OCC(Cc2ccccc2)N1Cc1ccccc1 (stereo not shown)
-- reply 33.1

-- ask Quote IC50 reported for `CCN(Cc1ccccc1)S(=O)(=O)c1cc(F)ccc1OC` please.
-- reply 11

-- ask Answer with reported IC50 of `CCN(Cc1ccccc1)S(=O)(=O)c1cc(OC)ccc1OC`
-- reply 2.51

-- ask Specify IC50 for `COCCN(Cc1ccccc1)S(=O)(=O)c1cc(C(=O)N2CCNCC2)ccc1OC` and stop.
-- reply 36.3

-- ask Read off the recorded IC50 for `O=S(=O)(c1cc(N2CCOCC2)ccc1OC(F)F)N(Cc1ccc(F)cc1)Cc1ccc(F)cc1`
-- reply 0.501

-- ask Return IC50 for the following compound: `COc1ccc(C(=O)N2CCOCC2)cc1S(=O)(=O)N(Cc1ccc(F)cc1)Cc1ccccc1Cl`
-- reply 1.41

-- ask Name the recorded IC50 of the item O=S(=O)(c1cc(F)ccc1F)N(Cc1ccccc1)CC(O)c1ccc(F)cc1 (stereo not shown) in your answer.
-- reply 33.1

-- ask Give me measured IC50, please, for this compound: CCCCC1Nc2cc(Cl)c(S(N)(=O)=O)cc2S(=O)(=O)N1Cc1ccccc1 (stereo not shown)
-- reply 7.24

-- ask Given `COc1ccc(C(=O)N2CCOCC2)cc1S(=O)(=O)N(Cc1ccc(F)cc1)CC(C)C` , respond with its IC50.
-- reply 6.92

-- ask Supply measured IC50 of `COc1ccc(C(=O)N2CCOCC2)cc1S(=O)(=O)N(Cc1ccccc1)Cc1cnc(C(F)(F)F)nc1` in your reply.
-- reply 4.37

-- ask Given the compound `COc1ncc(C#N)cc1S(=O)(=O)N(Cc1ccc(F)cc1)Cc1ccc(F)cc1` , write its reported IC50.
-- reply 7.59

-- ask Output measured IC50 for this item: `COc1ccc(OC)c(S(=O)(=O)N(Cc2ccc(F)cc2)Cc2ccc(F)cc2)c1`
-- reply 0.537

-- ask Identify measured IC50 associated with `COc1ccc(C#N)cc1S(=O)(=O)N(Cc1ccc(F)cc1)Cc1ccccn1`
-- reply 3.16

-- ask Check the records and state IC50 for `COc1ccc(CN2CCC(F)(F)CC2)cc1S(=O)(=O)N(Cc1ccc(F)cc1)Cc1ccc(F)cc1`
-- reply 3.16

-- ask Using the record for `COCCN(Cc1ccc(F)cc1)S(=O)(=O)c1cc(C#N)ccc1OC` , state its measured IC50.
-- reply 8.91

-- ask Name the recorded IC50 of the compound listed here: `N#Cc1ccc(O)c(S(=O)(=O)N(Cc2ccc(F)cc2)Cc2ccc(F)cc2)c1`
-- reply 30.9

-- ask Provide measured IC50 value, entry: `COc1ccc(OC)c(S(=O)(=O)N(Cc2ccc(F)cc2)Cc2ccccn2)c1`
-- reply 0.977

-- ask Using known records, supply IC50 for `CCN(Cc1ccccn1)S(=O)(=O)c1cc(OC)ccc1OC`
-- reply 43.7

-- ask Could you please provide reported IC50 for `CN(C)CCN(Cc1ccccc1)S(=O)(=O)c1ccccc1OC(F)(F)F` ? Thanks!
-- reply 8.71
